Taken from paper PMC4942255.

# study_target: xMutSα ΔN (xMsh2-xMsh6ΔN-FLAG) (Xenopus laevis, UniProt A0A1B4WRB1;A0A1B4WRB2 1-932;=M+324-1340, internal_change)
# Sequence (chain, as listed by the source | mutant, chain 1 of 2): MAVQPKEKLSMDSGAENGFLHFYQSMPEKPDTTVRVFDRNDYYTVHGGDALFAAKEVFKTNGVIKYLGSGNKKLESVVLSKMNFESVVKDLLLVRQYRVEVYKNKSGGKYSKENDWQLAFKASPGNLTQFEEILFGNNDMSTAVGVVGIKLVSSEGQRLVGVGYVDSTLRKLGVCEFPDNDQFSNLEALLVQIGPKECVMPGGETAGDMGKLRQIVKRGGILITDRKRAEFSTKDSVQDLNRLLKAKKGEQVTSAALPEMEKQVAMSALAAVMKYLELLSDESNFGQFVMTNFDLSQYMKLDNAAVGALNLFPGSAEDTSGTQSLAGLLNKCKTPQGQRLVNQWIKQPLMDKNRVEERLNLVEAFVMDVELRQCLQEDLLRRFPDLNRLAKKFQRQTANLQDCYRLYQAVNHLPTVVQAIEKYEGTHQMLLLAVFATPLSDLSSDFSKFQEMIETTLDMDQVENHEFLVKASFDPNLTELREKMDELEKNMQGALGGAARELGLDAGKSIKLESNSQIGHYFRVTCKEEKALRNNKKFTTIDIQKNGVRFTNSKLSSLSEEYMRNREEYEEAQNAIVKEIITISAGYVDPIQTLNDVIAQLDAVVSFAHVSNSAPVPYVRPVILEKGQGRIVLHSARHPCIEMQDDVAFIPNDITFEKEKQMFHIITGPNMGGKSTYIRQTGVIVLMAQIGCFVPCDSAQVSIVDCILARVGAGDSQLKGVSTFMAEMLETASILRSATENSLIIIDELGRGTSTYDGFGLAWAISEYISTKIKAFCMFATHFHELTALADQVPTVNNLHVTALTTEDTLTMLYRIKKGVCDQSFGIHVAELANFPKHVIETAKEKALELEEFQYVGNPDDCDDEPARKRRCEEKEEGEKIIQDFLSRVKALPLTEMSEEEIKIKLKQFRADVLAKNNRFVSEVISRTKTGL
# Sequence (chain, as listed by the source | mutant, chain 2 of 2): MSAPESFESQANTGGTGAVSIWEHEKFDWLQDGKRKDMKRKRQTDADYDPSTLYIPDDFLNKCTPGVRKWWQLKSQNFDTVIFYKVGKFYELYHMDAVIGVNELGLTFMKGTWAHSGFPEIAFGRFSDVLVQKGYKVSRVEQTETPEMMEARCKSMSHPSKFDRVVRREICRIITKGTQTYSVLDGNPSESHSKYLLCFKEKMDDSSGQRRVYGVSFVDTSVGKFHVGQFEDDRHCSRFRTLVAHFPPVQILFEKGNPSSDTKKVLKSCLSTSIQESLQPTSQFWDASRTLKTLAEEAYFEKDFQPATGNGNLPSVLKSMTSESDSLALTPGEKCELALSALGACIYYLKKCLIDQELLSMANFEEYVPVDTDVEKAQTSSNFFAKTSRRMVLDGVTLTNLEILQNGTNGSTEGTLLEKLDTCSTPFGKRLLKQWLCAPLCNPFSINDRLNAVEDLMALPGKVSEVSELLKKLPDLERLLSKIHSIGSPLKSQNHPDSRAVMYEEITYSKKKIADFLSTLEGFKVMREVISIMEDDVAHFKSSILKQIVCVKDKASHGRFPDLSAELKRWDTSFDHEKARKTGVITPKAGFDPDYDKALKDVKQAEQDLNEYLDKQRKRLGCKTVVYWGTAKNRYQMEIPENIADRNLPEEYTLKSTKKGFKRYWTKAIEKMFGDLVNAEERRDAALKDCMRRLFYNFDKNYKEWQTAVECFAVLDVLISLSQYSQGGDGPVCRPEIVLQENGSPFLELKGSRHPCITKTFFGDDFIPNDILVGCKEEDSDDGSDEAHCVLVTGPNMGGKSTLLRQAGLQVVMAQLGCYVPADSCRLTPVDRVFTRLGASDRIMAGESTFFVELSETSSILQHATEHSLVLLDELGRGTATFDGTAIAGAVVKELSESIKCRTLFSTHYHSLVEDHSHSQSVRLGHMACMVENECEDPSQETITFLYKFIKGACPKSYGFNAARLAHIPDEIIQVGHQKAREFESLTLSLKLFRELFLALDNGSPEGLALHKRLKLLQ
# assay: SPR; no nucleotide or Mg2+ listed in running buffer; n = 2; SPR (BIACORE 3000): 20 mM Hepes-NaOH pH 7.5, 100 mM NaCl, 1 mM DTT, 0.005% Tween-20; 20 μl/min, 3 min association and 3 min dissociation; temperature not stated
# measurement_context: protein: recombinant; tags: C-terminal FLAG on xMsh6; copies: 1;1; label: 3' biotin on strand 1; blunt, A:C mismatch (A at strand 1 position 22, C in strand 2)
pKd: −log10 of the molar value.
recorded_endpoint: pKd

>>> quantitative_readout("42 bp A:C mismatch oligo DNA (dsDNA) DNA 1: GGGTGACCGTACTGCATCTCGAGATCCATGTTACTGCGTCAG DNA 2: CTGACGCAGTAACATGGATCCCGAGATGCAGTACGGTCACCC")
8.44
